Measured Attribute: melting point

## Input Item Cc1cc(CC(=O)Nc2ccc(S(N)(=O)=O)cc2Cl)cc(Oc2cc(Cl)cc(C#N)c2)c1C has what recorded melting point?
## Output 224.3 to 225.7 °C

* * *

Listing of recorded melting point by entry.

Known results for compounds:
# Compound, melting point
data = [
    ("Cc1cc(S(N)(=O)=O)ccc1NC(=O)Cc1cc(Oc2cccc(C#N)c2)c2occc2c1 [Compound I-145]", "218.9 to 220 °C"),
    ("Cc1cc(S(=O)(=O)CCCO)ccc1NC(=O)Cc1ccc(C)c(Oc2cc(Cl)cc(C#N)c2)c1 [Compound I-157]", "78.9 to 79.5 °C"),
    ("Cc1cc(C(=O)CN2CCN(C)CC2)ccc1NC(=O)Cc1ccc(C)c(Oc2cc(Cl)cc(C#N)c2)c1 [Compound I-159]", "62.3 to 64.1 °C"),
    ("CCOC(=O)C(=O)Nc1ccc(NC(=O)Cc2ccc(C)c(Oc3cc(Cl)cc(C#N)c3)c2)c(C)c1 [Compound I-178]", "182.5 to 183.9 °C"),
    ("Cc1cc(CC(=O)Nc2ccc(S(N)(=O)=O)cc2C)cc(Oc2cc(C#N)ccc2Cl)c1 [Compound I-147]", "200.3 to 201.1 °C"),
]

## Input Look up melting point for this compound: Cl.N#Cc1cc(Cl)cc(Oc2c(Cl)ccc(CC(=O)Nc3ccc(S(=O)(=O)NC(=O)CN4CCOCC4)cc3Cl)c2F)c1
## Output 223.3 to 225 °C

## Input Requested read-out: melting point. Entry: CCc1ccc(CC(=O)Nc2ccccc2Cl)cc1Oc1cc(Cl)cc(Br)c1 [Compound I-24]
## Output 119.9 to 122.2 °C

## Input What measured melting point goes with Cc1cc(N2CCCS2(=O)=O)ccc1NC(=O)Cc1ccc(C)c(Oc2cc(Cl)cc(C#N)c2)c1 [Compound I-170] ?
## Output 182.5 to 184.6 °C

## Input Look up melting point for this compound: N#Cc1cc(C#N)cc(Oc2cc(CC(=O)Nc3ccc(S(N)(=O)=O)cc3)ccc2Cl)c1 [Compound I-2]
## Output 218 to 219 °C

## Input Entry CCc1ccc(CC(=O)Nc2ccc(S(N)(=O)=O)cc2C)cc1Oc1cc(C#N)cc(C#N)c1Cl [Compound I-53] has what melting point?
## Output 199.4 to 205.3 °C

* * *

System Under Test: HIV-1 RT (Human immunodeficiency virus type 1 group M subtype B)
Test Protocol: HIV Reverse Transcriptase Assay: Inhibitor IC50 Determination
Format: biochemical
Counter-ions that a name gives are not always drawn.
Here the recorded IC50 is given for each entry.
Please give a number only; it is taken to be in nM.

## Input Field request: IC50 | item: CCC(=O)NS(=O)(=O)c1ccc(NC(=O)Cc2ccc(Br)c(Oc3cc(Cl)cc(C#N)c3)c2F)c(Cl)c1 [Compound I-63, sodium salt]
## Output 5.8

## Input Request the reported IC50 associated with CCCC(=O)NS(=O)(=O)c1ccc(NC(=O)Cc2ccc(Cl)c(Oc3cc(Cl)cc(C#N)c3)c2F)c(Cl)c1.[Na] [Compound I-138, sodium salt]
## Output 4.5

## Input So what does the record say about IC50 for CC(C)[C@H](N)C(=O)NS(=O)(=O)c1ccc(NC(=O)Cc2ccc(Cl)c(Oc3cc(Cl)cc(C#N)c3)c2F)c(Cl)c1.[Na] [Compound I-127, sodium salt] ?
## Output 5.9

## Input Entry under review: N#Cc1cc(Cl)cc(Oc2c(Br)ccc(CC(=O)Nc3ccc(S(N)(=O)=O)cc3Cl)c2F)c1 . Reported IC50?
## Output 13.6

* * *

Parameter: melting point. Scope: all listed entries.

# Smiles Structure, melting point
records = [
    ("COc1ccc(CC(=O)Nc2ccccc2Cl)cc1Oc1cc(C#N)ccc1Cl", "194 to 197.8 °C"),
    ("CC(C)CC(=O)NS(=O)(=O)c1ccc(NC(=O)Cc2ccc(Cl)c(Oc3cc(Cl)cc(C#N)c3)c2F)c(Cl)c1.[Na]", "159.3 to 163.4 °C"),
    ("Cc1cc(CC(=O)Nc2ccc(S(N)(=O)=O)cc2)cc(Oc2cc(C#N)ccc2Cl)c1", "235.9 to 236.7 °C"),
]

Here is the next item to consider.
## Input Which melting point reading was recorded for the molecule COCCC(=O)NS(=O)(=O)c1ccc(NC(=O)Cc2ccc(Cl)c(Oc3cc(Cl)cc(C#N)c3)c2F)c(Cl)c1.[Na] ?
## Output 133.1 to 140.7 °C

* * *

# melting point listing for each entry below

Worked set:
# Compound, melting point
measured = [
    ("COc1cc(CC(=O)Nc2ccc(S(N)(=O)=O)cc2C)cc(Oc2cc(Cl)cc(C#N)c2)c1 [Compound I-133]", "169.9 to 171.1 °C"),
    ("Cc1cc(S(=O)(=O)NC2CCOCC2)ccc1NC(=O)Cc1ccc(C)c(Oc2cc(Cl)cc(C#N)c2)c1 [Compound I-128]", "171.7 to 172.6 °C"),
    ("Cc1cc(CC(=O)Nc2ccc(S(N)(=O)=O)cc2C)cc(Oc2cc(Cl)cc(C#N)c2)c1 [Compound I-142]", "184.8 to 186 °C"),
    ("Cc1cc(C(=O)CN2CCOCC2)ccc1NC(=O)Cc1ccc(C)c(Oc2cc(Cl)cc(C#N)c2)c1.O=C(O)C(F)(F)F", "110.3 to 110.5 °C"),
    ("CC(C)[C@H](N)C(=O)NS(=O)(=O)c1ccc(NC(=O)Cc2ccc(Cl)c(Oc3cc(Cl)cc(C#N)c3)c2F)c(Cl)c1.[Na] [Compound I-127]", "219.4 to 220.2 °C"),
]

## Input Which melting point is reported for this compound? N#Cc1cc(Cl)cc(Oc2c(Cl)ccc(CC(=O)Nc3ccc(S(=O)(=O)NC(=O)CCC(=O)O)cc3Cl)c2F)c1 [Compound I-188]
## Output 143.4 to 144 °C

## Input Give the measured melting point of N#Cc1cc(Oc2cc(CC(=O)Nc3ccc(S(N)(=O)=O)cc3)ccc2Cl)cc(C(F)(F)F)c1 [Compound I-88] .
## Output 219 to 221.4 °C

* * *

Measured Attribute: melting point

Field: example entries. Status: answers known.
# Compound, Assay Result
data = [
    ("CSCCCNS(=O)(=O)c1ccc(NC(=O)Cc2ccc(C)c(Oc3cc(Cl)cc(C#N)c3)c2)c(C)c1 [Compound I-131]", "159.9 to 162.8 °C"),
    ("CCc1ccc(CC(=O)Nc2ccc(S(N)(=O)=O)cc2)cc1Oc1cc(Cl)cc(Br)c1Cl [Compound I-35]", "206.9 to 209.9 °C"),
]

## Input Tell me the measured melting point of Cc1cc(S(N)(=O)=O)ccc1NC(=O)Cc1ccc(Cl)c(Oc2cc(C#N)cc(C(F)(F)F)c2)c1 [Compound I-89] , please.
## Output 211.6 to 214.6 °C

## Input Suppose we examine the compound COCCC(=O)N(C)S(=O)(=O)c1ccc(NC(=O)Cc2ccc(Cl)c(Oc3cc(Cl)cc(C#N)c3)c2F)c(Cl)c1 [Compound I-172] ; what melting point value has been reported?
## Output 199.3 to 203 °C

## Input // query melting point value for entry CCc1ccc(CC(=O)Nc2ccc(S(N)(=O)=O)cc2)cc1Oc1cc(C#N)cc(F)c1Cl [Compound I-49]
## Output 167.9 to 170.5 °C

## Input Consider the compound shown here: CCc1ccc(CC(=O)Nc2ccc(S(N)(=O)=O)cc2Cl)c(F)c1Oc1cc(C#N)cc(C(F)F)c1 [Compound I-179] What is its recorded melting point?
## Output 239.6 to 240.7 °C

## Input Any idea what melting point was measured for COc1ccc(CC(=O)Nc2ccc(S(N)(=O)=O)cc2)cc1Oc1cc(C#N)ccc1Cl [Compound I-65] ?
## Output 252.3 to 254.3 °C

* * *

Measured Attribute: melting point

# Molecule, Measured Attribute, Assay Result
data = [
    ("Cc1cc(S(=O)(=O)N2CCSCC2)ccc1NC(=O)Cc1ccc(C)c(Oc2cc(Cl)cc(C#N)c2)c1 [Compound I-117]", "melting point", "151.9 to 155.3 °C"),
]

## Input I'd like to know its melting point. The molecule in question is CC(C)c1ccc(CC(=O)Nc2ccccc2Cl)cc1Oc1cc(Cl)ccc1Br [Compound I-27]
## Output 142.9 to 143.6 °C

## Input What value of melting point has been recorded for this entry: COCC(=O)NS(=O)(=O)c1ccc(NC(=O)Cc2ccc(Cl)c(Oc3cc(Cl)cc(C#N)c3)c2F)c(Cl)c1.[Na]
## Output 151.7 to 152.3 °C

## Input Fill in the blank: the reported melting point of N#Cc1cc(Cl)cc(Oc2c(Cl)ccc(CC(=O)Nc3ccc(S(=O)(=O)NC(=O)CO)cc3Cl)c2F)c1.[Na] is ____.
## Output 178 to 179.5 °C

## Input Please give the measured melting point for this molecule: CCc1ccc(CC(=O)Nc2ccc(S(N)(=O)=O)cc2)cc1Oc1cc(Cl)cc(Br)c1 [Compound I-22]
## Output 216.1 to 221.3 °C

## Input Param item = COc1ccc(CC(=O)Nc2ccc(S(N)(=O)=O)cc2Cl)cc1Oc1cc(Cl)cc(C#N)c1 [Compound I-64] ; retrieve measured melting point.
## Output 186.3 to 189.7 °C

## Input May I ask what melting point has been recorded for COc1ccc(CC(=O)Nc2ccc(S(N)(=O)=O)cc2Cl)cc1Oc1cc(C#N)ccc1Cl [Compound I-67] ?
## Output 214.6 to 216.4 °C

## Input Give its melting point value. Item: Cc1ccc(CC(=O)Nc2ccccc2Cl)cc1Oc1cc(F)cc(C#N)c1 [Compound I-12]
## Output 131.1 to 132.2 °C

## Input Can you look up the measured melting point of Cc1cc(S(=O)(=O)NC2CCC(O)CC2)ccc1NC(=O)Cc1ccc(C)c(Oc2cc(Cl)cc(C#N)c2)c1 (stereo not shown) [Compound I-121] for me?
## Output 195.1 to 197.7 °C

## Input May I ask what melting point has been recorded for Cc1cc(S(N)(=O)=O)ccc1NC(=O)Cc1ccc(C)c(Oc2cc(Cl)cc(C#N)c2)c1F [Compound I-74] ?
## Output 230 to 232.2 °C

## Input Item under review: CNS(=O)(=O)c1ccc(NC(=O)Cc2ccc(Cl)c(Oc3cc(Cl)cc(C#N)c3)c2F)c(C)c1 [Compound I-108] . Reported melting point?
## Output 204.4 to 207.3 °C

## Input Report melting point for COc1ccc(CC(=O)Nc2ccc(S(N)(=O)=O)cc2)cc1Oc1cc(Cl)cc(C#N)c1 [Compound I-57] please.
## Output 218.3 to 221.4 °C

## Input # lookup: melting point of CCc1ccc(CC(=O)Nc2ccc(S(N)(=O)=O)cc2)cc1Oc1cc(Cl)ccc1C#N [Compound I-17]
## Output 198.1 to 202.6 °C

## Input Reported melting point for CSCCNS(=O)(=O)c1ccc(NC(=O)Cc2ccc(C)c(Oc3cc(Cl)cc(C#N)c3)c2)c(C)c1 [Compound I-130] : what is it?
## Output 155.6 to 156.6 °C
